This section presents compounds with their documented Ratio IC50 values.
# Organism: Homo sapiens
# assay-method-text: Selectivity ratio of IC50 for HDAC1 (unknown origin) to IC50 for HDAC in human HCT116 cells
# Assay type: cell-based

Would you please look over these solved cases?
Nc1ccccc1NC(=O)c1ccc(CNC(=O)c2cc3ccc(OCc4ccc(Cl)c(Cl)c4)cc3oc2=O)cc1 ... 0.59
Nc1ccccc1NC(=O)c1ccc(CNC(=O)c2cc3ccc(OCc4ccc(Br)cc4)cc3oc2=O)cc1 ... 1.19
CCCOc1ccc2cc(C(=O)NCc3ccc(C(=O)Nc4ccccc4N)cc3)c(=O)oc2c1 ... 0.8

Please turn your attention to the following entry.
-- ask Given the entry "COc1ccc(COc2ccc3cc(C(=O)NCc4ccc(C(=O)Nc5ccccc5N)cc4)c(=O)oc3c2)cc1" , report its measured Ratio IC50.
-- reply 0.89

From: ChEMBL document CHEMBL4028812
